# experimental-details: in vivo
# Set-up: species or system mice
# experimental-context: mouse, iv, 3.4 MBq, total radioactivity, Biodistribution, Liver

{"compound": "CC(=O)NC(CCCCNC(=O)CN1CCN(CC(=O)O)CCN(CC(=O)O)CCN(CC(=O)O)CC1)C(=O)N1CCCC1C(=O)N(C)C(CCCNC(=N)N)C(=O)NC(CCCNC(=N)N)C(=O)N1CCCC1C(=O)NC(Cc1ccc(O)cc1)C(=O)NC(C(=O)NC(CC(C)C)C(=O)O)C(C)(C)C (stereo not shown) [^68Ga-DOTA-NT-20.3, metal not drawn]", "unit-text": "%ID/g", "tissue uptake at 5 min": 5.46}

###

# experimental-details: in vivo
# Design: species or system mice
# experimental-context: mouse, iv, 3.4 MBq, total radioactivity, Biodistribution, Bone

{"compound": "CC(=O)NC(CCCCNC(=O)CN1CCN(CC(=O)O)CCN(CC(=O)O)CCN(CC(=O)O)CC1)C(=O)N1CCCC1C(=O)N(C)C(CCCNC(=N)N)C(=O)NC(CCCNC(=N)N)C(=O)N1CCCC1C(=O)NC(Cc1ccc(O)cc1)C(=O)NC(C(=O)NC(CC(C)C)C(=O)O)C(C)(C)C (stereo not shown) [^68Ga-DOTA-NT-20.3, metal not drawn]", "tissue uptake at 2 h / %ID/g": 0.53}

###

# experimental-details: in vivo
# Design: species or system mice
# experimental-context: mouse, iv, 3.4 MBq, total radioactivity, Biodistribution, Kidney

{"molecule": "CC(=O)NC(CCCCNC(=O)CN1CCN(CC(=O)O)CCN(CC(=O)O)CCN(CC(=O)O)CC1)C(=O)N1CCCC1C(=O)N(C)C(CCCNC(=N)N)C(=O)NC(CCCNC(=N)N)C(=O)N1CCCC1C(=O)NC(Cc1ccc(O)cc1)C(=O)NC(C(=O)NC(CC(C)C)C(=O)O)C(C)(C)C (stereo not shown) [^68Ga-DOTA-NT-20.3, metal not drawn]", "tissue uptake at 5 min / %ID/g": 18.4}

###

# experimental-details: in vivo
# Parameters: species or system mice
# experimental-context: mouse, iv, 3.4 MBq, total radioactivity, Biodistribution, Fat
parameter-measured: tissue uptake at 2 h (%ID/g)

{"molecule": "CC(=O)NC(CCCCNC(=O)CN1CCN(CC(=O)O)CCN(CC(=O)O)CCN(CC(=O)O)CC1)C(=O)N1CCCC1C(=O)N(C)C(CCCNC(=N)N)C(=O)NC(CCCNC(=N)N)C(=O)N1CCCC1C(=O)NC(Cc1ccc(O)cc1)C(=O)NC(C(=O)NC(CC(C)C)C(=O)O)C(C)(C)C (stereo not shown) [^68Ga-DOTA-NT-20.3, metal not drawn]", "unit-text": "%ID/g", "observed-value": 0.32}

###

# experimental-details: in vivo
# Set-up: species or system mice
# experimental-context: mouse, iv, 3.4 MBq, total radioactivity, Biodistribution, Spleen
parameter-measured: tissue uptake at 0.25 h (%ID/g)

{"compound": "CC(=O)NC(CCCCNC(=O)CN1CCN(CC(=O)O)CCN(CC(=O)O)CCN(CC(=O)O)CC1)C(=O)N1CCCC1C(=O)N(C)C(CCCNC(=N)N)C(=O)NC(CCCNC(=N)N)C(=O)N1CCCC1C(=O)NC(Cc1ccc(O)cc1)C(=O)NC(C(=O)NC(CC(C)C)C(=O)O)C(C)(C)C (stereo not shown) [^68Ga-DOTA-NT-20.3, metal not drawn]", "unit-text": "%ID/g", "observed-value": 2.81}

Data credit: paper PMC9454456
